Every entry's value here was drawn from patent US7101878B1.

# testMethodNotes: Metabolism rate, pmol/min/mg at 1 μM, monkey
# Assay type: in vitro ADME
# conditions: 1 μM compound
Quick rule for you: Monkey pmol/min/mg 1 μM under 6000 pmol/min/mg gets Fulfilled, anything else gets Not fulfilled.

Is the reported Monkey pmol/min/mg 1 μM for Cc1cc2c(cc1Cc1ccc(C(=O)NCc3cccc(CNc4nccc(NC[C@@H]5CCCO5)n4)c3)o1)C(C)(C)CCC2(C)C strictly below 6000 pmol/min/mg?
Fulfilled

Is the reported Monkey pmol/min/mg 1 μM for COc1cc(OC)c(NC(=O)c2ccc(Cc3cc4c(cc3C)C(C)(C)CCC4(C)C)o2)c(OC)c1C#N strictly below 6000 pmol/min/mg?
Fulfilled

Is the reported Monkey pmol/min/mg 1 μM for COc1cc(OC)c(NC(=O)c2ccc(Cc3cc4c(cc3C)C(C)(C)CCC4(C)C)o2)c(OC)c1 strictly below 6000 pmol/min/mg?
Not fulfilled

###

# targetOfAssay: mouse GnRH receptor (Mus musculus, UniProt Q01776)
# Construct: expressed in transfected cells; host or cells: 293 cells
# testMethodNotes: Radioligand binding, 125I-GnRH-A, 293 cells expressing mouse GnRH receptors
# conditions: 10 uM; read-out: % Inhib. @ 10 uM mGnRH
readoutKind: inhibition at 10 µM (%)
Value expressed in %; do not type the unit.

inhibition at 10 µM reading for Cc1cc2c(cc1Cc1ccc(C(=O)N(C)CCC3OCCO3)o1)C(C)(C)CCC2(C)C [drawing 1583] : 96

inhibition at 10 µM reading for Cc1cc2c(cc1Cc1ccc(C(=O)N3CCC(O)(c4ccccc4)CC3)o1)C(C)(C)CCC2(C)C : 72

inhibition at 10 µM reading for Cc1cc2c(cc1Cc1ccc(C(=O)NC3CCc4ccccc43)o1)C(C)(C)CCC2(C)C (centres unmarked) [drawing 1375] : 57

inhibition at 10 µM reading for CCC(COC)NC(=O)c1ccc(Cc2cc3c(cc2C)C(C)(C)CCC3(C)C)o1 (centres unmarked) : 98

inhibition at 10 µM reading for Cc1cc2c(cc1Cc1ccc(C(=O)NCCc3ccc(Cl)cc3)o1)C(C)(C)CCC2(C)C [drawing 1521] : 81

inhibition at 10 µM reading for Cc1cc2c(cc1Cc1ccc(C(=O)N3CC(C)CC(C)C3)o1)C(C)(C)CCC2(C)C (centres unmarked) [drawing 1446] : 90

inhibition at 10 µM reading for Cc1cc2c(cc1Cc1ccc(C(=O)N3CCc4ccccc4C3)o1)C(C)(C)CCC2(C)C [drawing 1422] : 70

inhibition at 10 µM reading for Cc1cc2c(cc1Cc1ccc(C(=O)N(C)CCC=C3c4ccccc4CCc4ccccc43)o1)C(C)(C)CCC2(C)C [drawing 1472] : 58

###

# targetOfAssay: mouse GnRH receptor (Mus musculus, UniProt Q01776)
# Construct: expressed in transfected cells; host or cells: 293 cells
# Sequence (Q01776 1-327): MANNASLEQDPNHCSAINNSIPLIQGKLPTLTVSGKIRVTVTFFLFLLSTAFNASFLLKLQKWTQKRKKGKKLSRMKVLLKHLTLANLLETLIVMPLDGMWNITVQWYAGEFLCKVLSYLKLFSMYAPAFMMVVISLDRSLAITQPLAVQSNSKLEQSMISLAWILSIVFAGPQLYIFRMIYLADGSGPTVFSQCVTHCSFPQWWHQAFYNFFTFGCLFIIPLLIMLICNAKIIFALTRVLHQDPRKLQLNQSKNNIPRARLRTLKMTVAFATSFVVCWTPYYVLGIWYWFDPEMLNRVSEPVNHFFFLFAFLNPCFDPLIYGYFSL
# testMethodNotes: Radioligand binding, 125I-GnRH-A, 293 cells expressing mouse GnRH receptors
# conditions: 10 uM; read-out: % Inhib. @ 10 uM mGnRH
# Protocol: All compounds were diluted in 1% DMSO (final assay concentration) in binding assay buffer. […] Reactions were terminated by rapid filtration onto 96-well Packard GF/C filters soaked in 0.1% polyethyleneimine. Filters were washed three times with PBS buffer, dried and counted on a Packard Topcount by liquid scintillation counting. […] The reaction mixture was vortexed and incubated for 1 min at room temperature. […] Fractions were assessed for biological activity by radioligand binding.
Record form. Attribute: inhibition at 10 µM. Fill in for each entry.
Value expressed in %; do not type the unit.

inhibition at 10 µM reading for Cc1cc2c(cc1Cc1ccc(C(=O)N3CC=CCC3)o1)C(C)(C)CCC2(C)C [drawing 1430] : 69

inhibition at 10 µM reading for Cc1cc2c(cc1Cc1ccc(C(=O)N3C[C@H]4CCCC[C@H]4CC3C(=O)NC(C)(C)C)o1)C(C)(C)CCC2(C)C (some centres unmarked) [drawing 1502] : 52

inhibition at 10 µM reading for CCCN(CCC#N)C(=O)c1ccc(Cc2cc3c(cc2C)C(C)(C)CCC3(C)C)o1 : 94

inhibition at 10 µM reading for Cc1cc2c(cc1Cc1ccc(C(=O)N(C)C3CCCCC3)o1)C(C)(C)CCC2(C)C : 97

inhibition at 10 µM reading for Cc1cc2c(cc1Cc1ccc(C(=O)N3CCC(Cc4ccccc4)CC3)o1)C(C)(C)CCC2(C)C [drawing 1425] : 48

inhibition at 10 µM reading for Cc1cc2c(cc1Cc1ccc(C(=O)NCC(O)CO)o1)C(C)(C)CCC2(C)C (centres unmarked) : 14

inhibition at 10 µM reading for CCCN(CCc1ccccn1)C(=O)c1ccc(Cc2cc3c(cc2C)C(C)(C)CCC3(C)C)o1 [drawing 1297] : 100

inhibition at 10 µM reading for Cc1cc2c(cc1Cc1ccc(C(=O)NCCO)o1)C(C)(C)CCC2(C)C [drawing 1527] : 53
